Target: ALK fusion protein (Homo sapiens)
Construct: endogenous in cells; host or cells: NCI-H3122; the other entry of the earlier key: EML4 (Q9HC35, Echinoderm microtubule-associated protein-like 4)
Sequence (Q9UM73 with tags, fused parts or gaps): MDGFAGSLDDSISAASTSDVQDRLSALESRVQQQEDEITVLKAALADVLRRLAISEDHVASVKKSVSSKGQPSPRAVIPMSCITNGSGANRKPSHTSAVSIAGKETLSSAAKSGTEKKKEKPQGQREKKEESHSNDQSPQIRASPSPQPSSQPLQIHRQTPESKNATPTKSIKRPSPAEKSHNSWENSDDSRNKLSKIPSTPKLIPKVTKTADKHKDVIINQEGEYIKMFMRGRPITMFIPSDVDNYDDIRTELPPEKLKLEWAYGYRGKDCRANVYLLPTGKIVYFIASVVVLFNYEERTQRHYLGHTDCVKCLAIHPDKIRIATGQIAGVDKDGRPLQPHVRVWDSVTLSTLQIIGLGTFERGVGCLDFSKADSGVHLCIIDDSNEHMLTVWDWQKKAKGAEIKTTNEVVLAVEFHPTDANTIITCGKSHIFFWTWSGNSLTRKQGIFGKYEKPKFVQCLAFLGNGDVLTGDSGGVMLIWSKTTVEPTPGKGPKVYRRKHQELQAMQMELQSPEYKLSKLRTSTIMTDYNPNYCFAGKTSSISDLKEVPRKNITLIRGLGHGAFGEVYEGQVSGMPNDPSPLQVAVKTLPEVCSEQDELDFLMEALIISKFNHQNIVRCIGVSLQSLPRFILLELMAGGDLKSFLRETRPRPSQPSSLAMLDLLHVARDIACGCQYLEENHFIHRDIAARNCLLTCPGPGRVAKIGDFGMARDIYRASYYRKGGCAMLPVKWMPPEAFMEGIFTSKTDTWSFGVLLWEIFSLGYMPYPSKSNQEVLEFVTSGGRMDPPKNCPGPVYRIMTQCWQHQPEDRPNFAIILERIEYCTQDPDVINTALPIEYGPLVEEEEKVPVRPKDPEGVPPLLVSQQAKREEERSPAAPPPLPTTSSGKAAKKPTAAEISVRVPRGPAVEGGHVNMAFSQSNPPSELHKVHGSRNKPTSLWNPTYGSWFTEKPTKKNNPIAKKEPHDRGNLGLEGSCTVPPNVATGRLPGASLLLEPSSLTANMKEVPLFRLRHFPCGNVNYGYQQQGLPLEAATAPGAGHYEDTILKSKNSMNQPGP
Experiment: Western blot of ALK fusion protein levels in NCI-H3122 cells
Assay type: cell-based
Settings: NCI-H3122, NCI-H3122 cells, 500 nM, Western blot; read-out: ALK fusion protein degradation, NCI-H3122 (500 nM)
outcome-measure: Dmax at 0.5 µM

compound: Cc1cc(Nc2ncc(Cl)c(Nc3ccccc3S(=O)(=O)C(C)C)n2)c(OC(C)C)cc1C1CCN(C(=O)CCCCCNc2cccc3c2C(=O)N(C2CCC(=O)NC2=O)C3=O)CC1 (stereo not drawn)
reading: < 20%

compound: Cc1cc(Nc2ncc(Cl)c(Nc3ccccc3S(=O)(=O)C(C)C)n2)c(OC(C)C)cc1C1CCN(C(=O)CCOCCOCCOCCOCCOCCC(=O)N[C@H](C(=O)N2C[C@H](O)C[C@H]2C(=O)NCc2ccc(-c3scnc3C)cc2)C(C)(C)C)CC1
reading: < 20%

compound: Cc1cc(Nc2ncc(Cl)c(Nc3ccccc3S(=O)(=O)C(C)C)n2)c(OC(C)C)cc1C1CCN(CC(=O)NCCNc2cccc3c2C(=O)N(C2CCC(=O)N(C)C2=O)C3=O)CC1 (stereo not drawn)
reading: < 20%

compound: Cc1cc(Nc2ncc(Cl)c(Nc3ccccc3S(=O)(=O)C(C)C)n2)c(OC(C)C)cc1C1CCN(C(=O)CCCC(=O)N[C@H](C(=O)N2C[C@H](O)C[C@H]2C(=O)N[C@@H](C)c2ccc(-c3scnc3C)cc2)C(C)(C)C)CC1
reading: > 80%

compound: Cc1cc(Nc2ncc(Cl)c(Nc3ccccc3S(=O)(=O)C(C)C)n2)c(OC(C)C)cc1C1CCN(C(=O)CCOCCC(=O)N[C@H](C(=O)N2C[C@H](O)C[C@H]2C(=O)NCc2ccc(-c3scnc3C)cc2)C(C)(C)C)CC1
reading: 20 to 80%

compound: Cc1cc(Nc2ncc(Cl)c(Nc3ccccc3S(=O)(=O)C(C)C)n2)c(OC(C)C)cc1C1CCN(C(=O)CNc2cccc3c2C(=O)N(C2CCC(=O)NC2=O)C3=O)CC1 (stereo not drawn)
reading: < 20%

compound: Cc1cc(Nc2ncc(Cl)c(Nc3ccccc3S(=O)(=O)C(C)C)n2)c(OC(C)C)cc1C1CCN(C(=O)CCNc2cccc3c2C(=O)N(C2CCC(=O)NC2=O)C3=O)CC1 (stereo not drawn)
reading: 20 to 80%

compound: Cc1cc(Nc2ncc(Cl)c(Nc3ccccc3S(=O)(=O)C(C)C)n2)c(OC(C)C)cc1C1CCN(C(=O)CCCCCCCCC(=O)N[C@H](C(=O)N2C[C@H](O)C[C@H]2C(=O)NCc2ccc(-c3scnc3C)cc2)C(C)(C)C)CC1
reading: < 20%

compound: Cc1cc(Nc2ncc(Cl)c(Nc3ccccc3S(=O)(=O)C(C)C)n2)c(OC(C)C)cc1C1CCN(C(=O)CCCCC(=O)N[C@H](C(=O)N2C[C@H](O)C[C@H]2C(=O)NCc2ccc(-c3scnc3C)cc2)C(C)(C)C)CC1
reading: > 80%

compound: Cc1cc(Nc2ncc(Cl)c(Nc3ccccc3S(=O)(=O)C(C)C)n2)c(OC(C)C)cc1C1CCN(C(=O)CCOCCOCCNc2cccc3c2C(=O)N(C2CCC(=O)NC2=O)C3=O)CC1 (stereo not drawn)
reading: > 80%

compound: Cc1cc(Nc2ncc(Cl)c(Nc3ccccc3S(=O)(=O)C(C)C)n2)c(OC(C)C)cc1C1CCN(C(=O)CCCCCCCNc2cccc3c2C(=O)N(C2CCC(=O)NC2=O)C3=O)CC1 (stereo not drawn)
reading: 20 to 80%

compound: Cc1cc(Nc2ncc(Cl)c(Nc3ccccc3S(=O)(=O)C(C)C)n2)c(OC(C)C)cc1C1CCN(C(=O)COCCOCCOCCOCCOCC(=O)N[C@H](C(=O)N2C[C@H](O)C[C@H]2C(=O)NCc2ccc(-c3scnc3C)cc2)C(C)(C)C)CC1
reading: < 20%

compound: Cc1cc(Nc2ncc(Cl)c(Nc3ccccc3S(=O)(=O)C(C)C)n2)c(OC(C)C)cc1C1CCN(C(=O)COCCOCCOCC(=O)N[C@H](C(=O)N2C[C@H](O)C[C@H]2C(=O)NCc2ccc(-c3scnc3C)cc2)C(C)(C)C)CC1
reading: < 20%

compound: Cc1cc(Nc2ncc(Cl)c(Nc3ccccc3S(=O)(=O)C(C)C)n2)c(OC(C)C)cc1C1CCN(C(=O)CCCCCCCC(=O)N[C@H](C(=O)N2C[C@H](O)C[C@H]2C(=O)NCc2ccc(-c3scnc3C)cc2)C(C)(C)C)CC1
reading: > 80%

compound: Cc1cc(Nc2ncc(Cl)c(Nc3ccccc3S(=O)(=O)C(C)C)n2)c(OC(C)C)cc1C1CCN(C(=O)CCCCCCCCCC(=O)N[C@H](C(=O)N2C[C@H](O)C[C@H]2C(=O)NCc2ccc(-c3scnc3C)cc2)C(C)(C)C)CC1
reading: < 20%

compound: Cc1cc(Nc2ncc(Cl)c(Nc3ccccc3S(=O)(=O)C(C)C)n2)c(OC(C)C)cc1C1CCN(C(=O)CCC(=O)N[C@H](C(=O)N2C[C@H](O)C[C@H]2C(=O)NCc2ccc(-c3scnc3C)cc2)C(C)(C)C)CC1
reading: 20 to 80%

compound: Cc1cc(Nc2ncc(Cl)c(Nc3ccccc3S(=O)(=O)C(C)C)n2)c(OC(C)C)cc1C1CCN(C(=O)CCOCCOCCOCCOCCNc2cccc3c2C(=O)N(C2CCC(=O)NC2=O)C3=O)CC1 (stereo not drawn)
reading: 20 to 80%

compound: Cc1cc(Nc2ncc(Cl)c(Nc3ccccc3S(=O)(=O)C(C)C)n2)c(OC(C)C)cc1C1CCN(C(=O)CCCCCCNc2cccc3c2C(=O)N(C2CCC(=O)NC2=O)C3=O)CC1 (stereo not drawn)
reading: < 20%

Data credit: patent US20210283261A1
